# Experimental target: T1, recombinant human VEGF165 (human, UniProt P15692-4 27-191)
# T1 construct: also called hVEGF165; rhVEGF165
# T1 sequence (P15692 other isoform, or with tags, fused parts or gaps limits assumed): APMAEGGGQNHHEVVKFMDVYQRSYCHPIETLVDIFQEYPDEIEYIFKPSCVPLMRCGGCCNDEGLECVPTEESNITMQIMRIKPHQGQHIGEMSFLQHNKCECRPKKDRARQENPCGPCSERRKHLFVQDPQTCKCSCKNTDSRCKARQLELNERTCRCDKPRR
# Protocol description: Biacore, periplasmic extract on hVEGF165 chip, two phase decay fit
Please go through the items and note down their % fast.
One number for each entry, in %.

Past entries and their recorded results:
| Binder | % fast / % |
| --- | --- |
| VEGFBII39E02 (VHH, periplasmic extract) VHH: EVQLVESGGGLVQPGDPLKLSCAFSGRTFSSYSMGWFRQAQGKEREFVVAISSSGGYIYDSVSLEGRFTISRDNTKNTVYLQTPSLKPEDTADYYCAASRAYGSSRLRLADTYDYWGQGTQVTVSS | 13 |
| VEGFBII22E04 (VHH, periplasmic extract) VHH: EVQLVESGGGLVQPGDSLKLSCVASGRTSSSYSMGWFRQAQGKEREFVVAISSGGSIYDSVSLQGRFTISRDNTKNTVYLQTPSLKPEDTAVYYCAASRAYASSRLRLADTYDYWGQGTQVTVSS | 14 |
| VEGFBII22B07 (VHH, periplasmic extract) VHH: EVQLVESGGGLVQAGDSLRLSCAASGRTFSSYSMGWFRQAQGKEREFVVAISSSGNYKYDSVSLEGRFTISRDNTKNTVYLQINSLKPEDTAVYYCAASRAYGSSRLRLGDTYDYWGQGTQVTVSS | 31 |

// next entry
Entry VEGFBII40G07 (VHH, periplasmic extract) VHH: EVQLVESGGGLVQPGDSLKLSCAFSGRTFSSYSMGWFRQAQGKEREFVVAISSSGGYIYDSVSLEGRFTISRDNTKNAVYLQTPSLKPEDTADYYCAASRAYGSSRLRLADTYDYWGQGTQVTVSS : reported % fast = ? 19
